- System: lactate dehydrogenase (LDH)
- ASSAY: ELISA analysis of phage on LDH (irrelevant, non-specific target)
- Format: binding
- CONDITIONS USED: peptide binding to LDH polypeptide (non-specific binding); phage ELISA units read at 405 nm
Provide the recorded LDH (OD) for the entries that follow.
Numbers only; they are read as OD.

The recorded LDH (OD) for LGRIVRPCVVRLCGGV##GV (LGRIVRPCVVRLCGGVGV; DGI-2-20F-PP-G10; listed as Escherichia coli) is 1.2

Entry WWREWVDGSLRGGGGTVLKD (DGI-2-20R-3-A122; listed as Escherichia coli) ; LDH (OD) = 1.0

Record summary for TSCQVMFLAGQHLLSRVPRL (DGI-2-20R-3-B6; listed as Escherichia coli) [DGL-2-20R-3-B6] : reported LDH (OD) = 1.0

The reported LDH (OD) of the substance TCWIHRGLNVVRYSVNFGVRDARLTTQGMAWFPPGCGQGCV (TCWHRGLNVVRYSVNFGVRDARLTTQGMAWFPPGCGQGCV; DGI-2-40F-4-E62; listed as Escherichia coli) was 1.0

# LDH (OD) of EGNWFCAVFRGFCVGDRGPE (DGI-2-20R-3-A1; listed as Escherichia coli) = 1.1

Form field LDH (OD), entry RQRSGGRWVVDRVTRVASTSP (DGI-2-20F-PP-B12; listed as Escherichia coli) : 1.1

// LDH (OD) value for KVWGCGARRGWERLGHLNQV (DGI-2-20F-PP-B10; listed as Escherichia coli) : 0.8
